Hello, the source for this data is patent US20200181195A1, in case you need it.

- tested on: T1, HLA-A*02:01 molecule (HLA-A*02:01 gene product) (human)
- T1 construct: MHC class I on T2 cells with added purified b2m
- assay info: flow cytometry, T2 cells + purified b2m, peptide dilution series, BB7.2 staining
quantity measured: Data of binding experiment (log Kd)

binder | Data of binding experiment (log Kd)
STGVSFFFL (Only the start position in MUC1 is printed; The end of the range follows from the length of 9 residues) [STGVSFFFL (Seq. ID No. 10)] | -5.12
FSAQSGAGV (Only the start position in MUC1 is printed; The end of the range follows from the length of 9 residues) [FSAQSGAGV (Seq. ID No. 12)] | -4.74
GVPGWGIAL (Only the start position in MUC1 is printed; The end of the range follows from the length of 9 residues) [GVPGWGIAL (Seq. ID No. 3)] | -4.55
GQDVTSVPV (Only the start position in MUC1 is printed; The end of the range follows from the length of 9 residues) [GQDVTSVPV (Seq. ID No. 11)] | -6.44
